Test: chemical recovery into PDMS from spiked human plasma; higher = better extraction
Conditions: pooled human plasma; extraction method: PES with PDMS; equilibration time (d): 6
Classification field: enter yes for chemical recovery into PDMS values not below 4%, no for values below it.

{"Compound": "COCCCC/C(=N\\OCCN)c1ccc(C(F)(F)F)cc1", "Category Label": "no"}
{"Compound": "CC(Cc1ccc(C(C)(C)C)cc1)CN1C[C@@H](C)O[C@@H](C)C1 (stereo not given in full)", "Category Label": "no"}
{"Compound": "CC(C)NCC(O)COc1cccc2ccccc12 (stereo not given)", "Category Label": "no"}
{"Compound": "COc1cc(Cl)ccc1Oc1ccc(Cl)cc1Cl", "Category Label": "yes"}
{"Compound": "CC(C)(C#N)c1cc(Cn2cncn2)cc(C(C)(C)C#N)c1", "Category Label": "yes"}
{"Compound": "c1ccc2ncccc2c1", "Category Label": "yes"}
{"Compound": "CS(=O)(=O)c1ccc(C(=O)C2C(=O)CCCC2=O)c(Cl)c1", "Category Label": "no"}
{"Compound": "N#Cc1nn(-c2c(Cl)cc(C(F)(F)F)cc2Cl)c(N)c1SC(F)(F)F [Fipronil sulfide]", "Category Label": "yes"}
{"Compound": "Cc1ccc(NC(=O)N(C)C)cc1Cl", "Category Label": "yes"}
{"Compound": "CN1C(=O)CC[C@H]1c1cccnc1", "Category Label": "yes"}

---

Assay: chemical recovery from spiked human plasma; higher = better extraction
Settings: pooled human plasma; extraction method: solvent precipitation (ACN + hexane)
Recorded chemical recovery, one value per entry.
Value Type: chemical recovery (%)

{"Molecule": "CC#Cc1cc(C)nc(Nc2ccccc2)n1", "Readout Value": 70.7}
{"Molecule": "O=C(OCc1ccccc1)c1ccccc1O [Benzyl salicylate]", "Readout Value": 26.5}
{"Molecule": "CCC1=C(C)CN(C(=O)NCCc2ccc(S(=O)(=O)NC(=O)NC3CCC(C)CC3)cc2)C1=O (stereo not given) [Glimepiride]", "Readout Value": 71.4}
{"Molecule": "CCCNC(=O)NS(=O)(=O)c1ccc(Cl)cc1 [Chlorpropamide]", "Readout Value": 76.8}
{"Molecule": "Cc1cc(C(C)(C)c2ccc(O)c(C)c2)ccc1O", "Readout Value": 39.4}

---

Experiment: chemical recovery from spiked human plasma; higher = better extraction
Details: pooled human plasma; extraction method: PES+SPE (3 d PDMS equilibration then HLB SPE)

{"Compound": "CC1CCN(CCCC(=O)c2ccc(F)cc2)CC1 [Melperon]", "chemical recovery [%]": 0.434}
{"Compound": "CCCNC(=O)NS(=O)(=O)c1ccc(Cl)cc1 [Chlorpropamide]", "chemical recovery [%]": 55.3}
{"Compound": "Cc1cccc(Nc2ccncc2S(=O)(=O)NC(=O)NC(C)C)c1 [Torasemide]", "chemical recovery [%]": 38.9}
{"Compound": "CN1C(=O)C(O)N=C(c2ccccc2)c2cc(Cl)ccc21 (centres undefined) [Temazepam]", "chemical recovery [%]": 62.9}
{"Compound": "COc1cnc(OC)n2nc(NS(=O)(=O)c3c(OCC(F)F)cccc3C(F)(F)F)nc12 [Penoxsulam]", "chemical recovery [%]": 53.1}
{"Compound": "CCOC(=O)C1=C(C)NC(C)=C(C(=O)OC)C1c1cccc([N+](=O)[O-])c1 (centres undefined) [Nitrendipin]", "chemical recovery [%]": 37.1}
{"Compound": "Oc1ccc(Cc2ccc(O)cc2)cc1 [Bisphenol-F]", "chemical recovery [%]": 70.2}
{"Compound": "CCC1=C(C)CN(C(=O)NCCc2ccc(S(=O)(=O)NC(=O)NC3CCC(C)CC3)cc2)C1=O (centres undefined) [Glimepiride]", "chemical recovery [%]": 36.8}
{"Compound": "Cc1c(C=O)c(=O)n(-c2ccccc2)n1C [4-Formyl-antipyrine]", "chemical recovery [%]": 41.3}
